Experimental Target: Neurotensin receptor type 1 (Homo sapiens, UniProt P30989)
Sequence (P30989 whole entry): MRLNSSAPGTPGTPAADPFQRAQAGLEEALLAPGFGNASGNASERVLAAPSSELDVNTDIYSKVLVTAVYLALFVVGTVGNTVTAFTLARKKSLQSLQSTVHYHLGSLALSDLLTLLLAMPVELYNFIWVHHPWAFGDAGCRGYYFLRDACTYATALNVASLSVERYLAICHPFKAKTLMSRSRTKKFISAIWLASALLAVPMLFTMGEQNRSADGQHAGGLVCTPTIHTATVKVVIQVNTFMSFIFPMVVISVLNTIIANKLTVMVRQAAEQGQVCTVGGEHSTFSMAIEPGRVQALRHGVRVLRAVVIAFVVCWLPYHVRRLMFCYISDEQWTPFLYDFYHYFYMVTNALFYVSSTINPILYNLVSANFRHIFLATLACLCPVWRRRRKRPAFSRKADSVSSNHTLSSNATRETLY
pIC50: −log10 of the molar value. Non-standard residues stand in square brackets, D forms with d. Residues, ends and D or L forms follow the SMILES beside them. *: point of attachment. Pentanoyl(5-guanidino) = NC(N)=NCCCCC(=O)*; X2 = [N-]=[N+]=N[C@@H](CCCCN)CC(=O)*; NMeR = CN[C@@H](CCCNC(=N)N)C(=O)O; Tle = CC(C)(C)[C@H](N)C(=O)O; β3hK = NCCCC[C@H](N)CC(=O)O; Ahp = NCCCCCCC(=O)O
I would appreciate it if you labelled entries t when pIC50 is 7 or higher, otherwise f.

Use these answered entries as a reference point.
Compound: CC(C)C[C@H](NC(=O)[C@@H](NC(=O)[C@H](Cc1ccc(O)cc1)NC(=O)[C@@H]1CCCN1C(=O)[C@H](CCCNC(=N)N)NC(=O)C[C@H](CCCCN)N=[N+]=[N-])C(C)(C)C)C(=O)O (X2-RPY[Tle]L-OH)
Classification: t

Compound: CC(C)C[C@H](NC(=O)[C@@H](NC(=O)[C@H](Cc1c[nH]c2ccccc12)NC(=O)[C@@H]1CCCN1C(=O)[C@H](CCCCN)NC(=O)CCCCNC(=N)N)C(C)(C)C)C(=O)O ({Pentanoyl(5-guanidino)}-KPW[Tle]L-OH)
Classification: f

Compound: CN[C@@H](CCCNC(=N)N)C(=O)N[C@@H](CCCCN)C(=O)N1CCC[C@H]1C(=O)N[C@@H](Cc1c[nH]c2ccccc12)C(=O)N[C@H](C(=O)N[C@@H](CC(C)C)C(=O)O)C(C)(C)C (H-[NMeR]KPW[Tle]L-OH)
Classification: f

Form field: pIC50 at least 7? Entry: CC(C)C[C@H](NC(=O)[C@@H](NC(=O)[C@H](Cc1ccc(O)cc1)NC(=O)[C@@H]1CCCN1C(=O)[C@H](CCCNC(=N)N)NC(=O)CCCCCCN)C(C)(C)C)C(=O)O (H-[Ahp]RPY[Tle]L-OH)
t

What about this compound? CC(C)C[C@H](NC(=O)[C@@H](NC(=O)[C@H](Cc1ccc(O)cc1)NC(=O)[C@@H]1CCCN1C(=O)[C@H](CCCNC(=N)N)NC(=O)C[C@@H](N)CCCCN)C(C)(C)C)C(=O)O (H-[β3hK]RPY[Tle]L-OH)
t

Same question, CC(C)C[C@H](NC(=O)[C@@H](NC(=O)[C@H](Cc1c[nH]c2ccccc12)NC(=O)[C@@H]1CCCN1C(=O)[C@H](CCCCN)NC(=O)[C@@H](N)CCCN=C(N)N)C(C)(C)C)C(=O)O (H-RKPW[Tle]L-OH) this time
f

Moving on to CC[C@@H](C)[C@H](NC(=O)[C@H](Cc1ccc(O)cc1)NC(=O)[C@@H]1CCCN1C(=O)[C@H](CCCNC(=N)N)NC(=O)[C@H](CCCNC(=N)N)NC)C(=O)N[C@@H](CC(C)C)C(=O)O
t

Next up: CC[C@@H](C)[C@H](NC(=O)[C@H](Cc1ccc(O)cc1)NC(=O)[C@@H]1CCCN1C(=O)[C@H](CCCN=C(N)N)NC(=O)[C@H](CCCN=C(N)N)N=[N+]=[N-])C(=O)N[C@@H](CC(C)C)C(=O)O
t

====

Here the recorded Activity is given for each entry.
System: Rattus norvegicus
Assay Info: Hypothermic activity in Sprague-Dawley rat assessed as decrease in core body temperature at 5 mg/kg, ip at time of maximal body temperature decrease
Format: functional
Experimental Context: route intraperitoneal
Non-standard residues stand in square brackets, D forms with d. Residues, ends and D or L forms follow the SMILES beside them. αMeR = C[C@](N)(CCCNC(=N)N)C(=O)O; Tle = CC(C)(C)[C@H](N)C(=O)O
Answers without a unit are incomplete; give the number and then its unit.

Examples from the recorded data:
Compound: CC[C@@H](C)[C@H](NC(=O)[C@H](Cc1ccc(O)cc1)NC(=O)[C@@H]1CCCN1C(=O)[C@H](CCCNC(=N)N)NC(=O)[C@H](CCCNC(=N)N)NC)C(=O)N[C@@H](CC(C)C)C(=O)O
Experimental Target: Rattus norvegicus
Value Measured: -1.55 °C
//
Compound: CC(C)C[C@H](NC(=O)[C@@H](NC(=O)[C@H](Cc1c[nH]c2ccccc12)NC(=O)[C@@H]1CCCN1C(=O)[C@H](CCCCN)NC(=O)[C@@](C)(N)CCCNC(=N)N)C(C)(C)C)C(=O)O (H-[αMeR]KPW[Tle]L-OH)
Experimental Target: Rattus norvegicus
Value Measured: -4.28 °C
//
Compound: CC(=O)N[C@@H](CCCNC(=N)N)C(=O)N[C@@H](CCCCN)C(=O)N1CCC[C@H]1C(=O)N[C@@H](Cc1c[nH]c2ccccc12)C(=O)N[C@H](C(=O)N[C@@H](CC(C)C)C(=O)O)C(C)(C)C (Ac-RKPW[Tle]L-OH)
Experimental Target: Rattus norvegicus
Value Measured: -4.3 °C
//
Compound: CC(C)C[C@H](NC(=O)[C@@H](NC(=O)[C@H](Cc1c[nH]c2ccccc12)NC(=O)[C@@H]1CCCN1C(=O)[C@H](CCCCN)NC(=O)[C@@H](N)CCCNC(=N)N)C(C)(C)C)C(=O)O (H-RKPW[Tle]L-OH)
Experimental Target: Rattus norvegicus
Value Measured: -2.11 °C

Shift focus to the following entry.
Give Rattus norvegicus Activity for CC[C@H](C)[C@H](NC(=O)[C@H](Cc1ccc(O)cc1)NC(=O)[C@@H]1CCCN1C(=O)[C@H](CCCN=C(N)N)NC(=O)[C@@H](N)CCCN=C(N)N)C(=O)N[C@@H](CC(C)C)C(=O)O
-0.55 °C

====

System: Rattus norvegicus
Assay Info: Hypothermic activity in Sprague-Dawley rat assessed as decrease in core body temperature at 5 mg/kg, ip at time of maximal body temperature decrease
Type: functional
Experimental Context: route intraperitoneal
Non-standard residues stand in square brackets, D forms with d. Residues, ends and D or L forms follow the SMILES beside them. *: point of attachment. Pentanoyl(5-guanidino) = NC(N)=NCCCCC(=O)*; X2 = [N-]=[N+]=N[C@@H](CCCCN)CC(=O)*; Tle = CC(C)(C)[C@H](N)C(=O)O; β3hK = NCCCC[C@H](N)CC(=O)O; Ahp = NCCCCCCC(=O)O
Activity listing for selected molecules.
Kindly provide the numeric value in °C only, without the unit symbol.

Some molecules with known Activity results, for comparison:
Molecule: CC(C)C[C@H](NC(=O)[C@@H](NC(=O)[C@H](Cc1ccc(O)cc1)NC(=O)[C@@H]1CCCN1C(=O)[C@H](CCCNC(=N)N)NC(=O)C[C@@H](N)CCCCN)C(C)(C)C)C(=O)O (H-[β3hK]RPY[Tle]L-OH)
Activity (°C): -1.53

Molecule: CC[C@@H](C)[C@H](NC(=O)[C@H](Cc1ccc(O)cc1)NC(=O)[C@@H]1CCCN1C(=O)[C@H](CCCNC(=N)N)NC(=O)[C@H](CCCNC(=N)N)N=[N+]=[N-])C(=O)N[C@@H](CC(C)C)C(=O)O
Activity (°C): -1

Molecule: CC(C)C[C@H](NC(=O)[C@@H](NC(=O)[C@H](Cc1ccc(O)cc1)NC(=O)[C@@H]1CCCN1C(=O)[C@H](CCCNC(=N)N)NC(=O)C[C@H](CCCCN)N=[N+]=[N-])C(C)(C)C)C(=O)O (X2-RPY[Tle]L-OH)
Activity (°C): -2.57

Report Activity for CC(C)C[C@H](NC(=O)[C@@H](NC(=O)[C@H](Cc1ccc(O)cc1)NC(=O)[C@@H]1CCCN1C(=O)[C@H](CCCNC(=N)N)NC(=O)CCCCCCN)C(C)(C)C)C(=O)O (H-[Ahp]RPY[Tle]L-OH) please.
-2.58

Subsequent entry: CC(C)C[C@H](NC(=O)[C@@H](NC(=O)[C@H](Cc1c[nH]c2ccccc12)NC(=O)[C@@H]1CCCN1C(=O)[C@H](CCCCN)NC(=O)CCCCNC(=N)N)C(C)(C)C)C(=O)O ({Pentanoyl(5-guanidino)}-KPW[Tle]L-OH)
-5.02

Could you do the same for CC[C@@H](C)[C@H](NC(=O)[C@H](Cc1ccc(O)cc1)NC(=O)[C@@H]1CCCN1C(=O)[C@H](CCCNC(=N)N)NC(=O)[C@@](C)(N)CCCNC(=N)N)C(=O)N[C@@H](CC(C)C)C(=O)O , please?
-0.28

Would you mind doing CC[C@@H](C)[C@H](NC(=O)[C@H](Cc1ccc(O)cc1)NC(=O)[C@@H]1CCCN1C(=O)[C@H](CCCNC(=N)N)NC(=O)CCCCNC(=N)N)C(=O)N[C@@H](CC(C)C)C(=O)O as well?
-0.99

Also check O=C(CCCN1CCC(O)(c2ccc(Cl)cc2)CC1)c1ccc(F)cc1 [HALOPERIDOL]
-1.34

How about CC[C@H](C)[C@H](NC(=O)[C@H](Cc1ccc(O)cc1)NC(=O)[C@@H]1CCCN1C(=O)[C@H](CCCN=C(N)N)NC(=O)[C@H](CCCN=C(N)N)NC(C)=O)C(=O)N[C@@H](CC(C)C)C(=O)O ?
-0.71

Then what about the molecule CC(=O)N[C@@H](CCCCN)CC(=O)N[C@@H](CCCNC(=N)N)C(=O)N1CCC[C@H]1C(=O)N[C@@H](Cc1ccc(O)cc1)C(=O)N[C@H](C(=O)N[C@@H](CC(C)C)C(=O)O)C(C)(C)C (Ac-[β3hK]RPY[Tle]L-OH) ?
-3.54
